test system: L1210 cells; experiment: Inhibition of 14C-uridine and 14C-thymidine incorporation (nucleic acid synthesis) in L1210 cells in culture (Table 5); assay type: cell-based; details: Mus musculus, L1210, 1 h, thymidine; 60 min. at 37° C.; read-out: 50% Inhibition Concentration of 14C-Thymidine Incorporation

Compound | IC50 (µg/mL)
COc1cccc2c1C(=O)c1c(O)c3c(c(O)c1C2=O)C[C@@](O)(C(C)=O)C[C@@H]3O[C@H]1C[C@H](N)[C@H](OC2CCCCO2)[C@H](C)O1 (single isomer, unassigned; isomer a) | 0.28
COc1cccc2c1C(=O)c1c(O)c3c(c(O)c1C2=O)C[C@@](O)(C(=O)COC1CCCCO1)C[C@@H]3O[C@H]1C[C@H](N)[C@H](OC2CCCCO2)[C@H](C)O1 (single isomer, unassigned; isomer a) | 0.55
COc1cccc2c1C(=O)c1c(O)c3c(c(O)c1C2=O)C[C@@](O)(C(=O)COC1CCCCO1)C[C@@H]3O[C@H]1C[C@H](N)[C@H](O)[C@H](C)O1 (stereo partly shown) [Example 14-O-PA, 14-O-tetrahydropyranyl adriamycin] | 0.42
COc1cccc2c1C(=O)c1c(O)c3c(c(O)c1C2=O)C[C@@](O)(C(=O)CO)C[C@@H]3O[C@H]1C[C@H](N)[C@H](OC2CCCCO2)[C@H](C)O1 (single isomer, unassigned; isomer a) | 0.37

The measurements presented in this section are drawn from patent US4303785A.
